Reference source for all entries: patent US4666897A

The reader will find reported Collagenolytic Activity: % ^14 C-collagen gel lyzed values listed item by item below.
# STUDY_SYSTEM: rat PMNL collagenolytic activity (PMNL collagenase) (Rattus norvegicus, UniProt O88766)
# Construct: An extract of PMNLs was prepared; from tissue; host or cells: extract of peritoneal exudate polymorphonuclear leucocytes of non-diabetic rats, elicited with glycogen
# Sequence (O88766 102-466): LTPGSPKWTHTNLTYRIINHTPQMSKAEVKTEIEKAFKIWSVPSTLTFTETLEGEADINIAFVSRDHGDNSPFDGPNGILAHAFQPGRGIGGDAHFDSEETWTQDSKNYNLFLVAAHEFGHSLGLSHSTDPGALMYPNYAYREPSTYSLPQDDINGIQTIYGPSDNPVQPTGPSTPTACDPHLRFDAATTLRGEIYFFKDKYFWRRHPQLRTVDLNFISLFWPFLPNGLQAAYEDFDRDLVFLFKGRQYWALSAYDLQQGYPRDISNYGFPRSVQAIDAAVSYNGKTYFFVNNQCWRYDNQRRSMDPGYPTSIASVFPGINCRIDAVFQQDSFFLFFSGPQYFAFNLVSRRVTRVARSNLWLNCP
# METHOD_SUMMARY: Rat PMNL collagenolytic activity in vitro (14C-collagen gel lysis)
# Type: biochemical
# MEASUREMENT_SETUP: Table 2; PMNL extract (30 × 10^6 PMNLs per ml) + 20 ug/ml; control extract 39.0
Provide the reading as a plain figure in %.

In the examples that follow, each entry is paired with its recorded Collagenolytic Activity: % ^14 C-collagen gel lyzed.
CN(C)[C@@H]1C(=O)C(C(N)=O)=C(O)[C@@]2(O)C(=O)C3=C(O)c4c(O)cccc4[C@@](C)(O)[C@H]3[C@H](O)[C@@H]12 [Terramycin, Oxytetracycline] | 4.4
CN(C)c1ccc(O)c2c1C[C@H]1C[C@H]3[C@H](N(C)C)C(O)=C(C(N)=O)C(=O)[C@@]3(O)C(O)=C1C2=O [minocycline, Minocycline] | 4.0
CC1(C)S[C@@H]2[C@H](NC(=O)[C@H](N)c3ccccc3)C(=O)N2[C@H]1C(=O)O [ampicillin] | 35.7
C[C@H]1c2cccc(O)c2C(O)=C2C(=O)[C@]3(O)C(O)=C(C(N)=O)C(=O)[C@@H](N(C)C)[C@@H]3[C@@H](O)[C@@H]21 [doxycycline, Doxycycline] | 4.5
Cc1nnc(SCC2=C(C(=O)O)N3C(=O)[C@@H](NC(=O)Cn4cnnn4)[C@H]3SC2)s1 [cefazolin] | 50.0

Lab note: next compound to report on.
// recorded Collagenolytic Activity: % ^14 C-collagen gel lyzed for CN(C)[C@@H]1C(=O)C(C(N)=O)=C(O)[C@@]2(O)C(=O)C3=C(O)c4c(O)cccc4[C@@](C)(O)[C@H]3C[C@@H]12 [tetracycline, Tetracycline] : 2.0
